Record form. Attribute: TGI. Fill in for each entry.
test system: HOP-62 NSCLC; test: NCI tumour cell line growth inhibition, 48 h

CN1CCN(CCCBr)CC1 :: > 100 µM
O=C(Nc1ccc(Cl)c(Cl)c1)O/N=C\c1c(Cl)ccc([N+](=O)[O-])c1Cl :: 11 µM
CC[N+]1(C)CCC(O)(c2ccc(Cl)c(Cl)c2)C(C(=O)c2ccc(Cl)c(Cl)c2)C1 (stereo not drawn) :: > 10 µM
CC(=O)Oc1c2oc3ccc(Cl)cc3c(=O)c2c(O)c2ccsc12 :: > 100 µM
COc1ccc(-c2cc(-c3ccc(Nc4ccnc5cc(Cl)ccc45)cc3)[nH]c(=O)c2C#N)c2ccccc12 :: > 53.9 µM

Look up TGI for the entries below, preserving their order.
1. CC1(C)CC(=O)c2c(nc3ccc4ccccc4c3c2-c2ccc(NC(=O)CCCCCCCCC(=O)Nc3ccc(-c4c5c(nc6ccc7ccccc7c46)CC(C)(C)CC5=O)cc3)cc2)C1
2. O=[N+]([O-])c1cccc([As]=[As]c2cccc([N+](=O)[O-])c2)c1 (stereo not drawn)
3. COC(=O)c1c(O)ccc2c1c1c(n2Cc2cccc(C)c2)C(=O)c2ccccc2C1=O

Reply:
> 100 µM
0.301 µM
31.3 µM

###

system: A549 NSCLC; experiment: NCI tumour cell line growth inhibition, 48 h
Kindly state TGI for each of the entries shown.

Examples with answers:
N#Cc1c(-c2ccc(Cl)cc2)c2c(n(C3OC(CO)C(O)C(O)C3O)c1=S)CCC2 (configuration not stated) :: > 100 µM
C[C@H]1C[C@H]2[C@@H]3C(C)(C)O[C@]4(O)C(=O)[C@]5(O)[C@@H](C)CC[C@H]1[C@]25C(=O)[C@]34C :: > 100 µM
COc1ccc(C2N(NC(=O)c3ccncc3)C(=O)CS2(=O)=O)cc1F (configuration not stated) :: > 100 µM
O=C1c2cc3c(cc2CC12Cc1ccc4c(c1C2=O)CCCC4)CCCC3 (configuration not stated) :: > 100 µM
COC(=O)[C@H]1CO[C@H]2C/C(C)=C/CC/C(C)=C/CC[C@@]3(C)O[C@@H]3C[C@H]21 :: > 50 µM

Count: 7. Required value per item: TGI.
1. COc1ccc(-c2c(C#N)c(S)n(NS(=O)(=O)c3ccc(C)cc3)c(=O)c2C#N)cc1
2. O=C1/C(=N\S(=O)(=O)c2ccccc2)C([n+]2ccc(Cc3ccccc3)cc2)=C([O-])c2ccccc21
3. CSC1=N/C(=C\c2ccco2)C(=O)N1CN1CCOCC1
4. CC(=O)Oc1c2oc3ccc(Cl)cc3c(=O)c2c(O)c2ccsc12
5. CCOC(=O)C(NC(=O)CC)(Nc1cc(C)on1)C(F)(F)F (configuration not stated)
6. CC1=C(CO)C(=O)O[C@@H]([C@@H](C)[C@H]2CC[C@H]3[C@@H]4C[C@@H](O)[C@@]5(O)CC=CC(=O)[C@]5(C)[C@H]4CC[C@]23C)C1
7. COC(=O)C1=C(c2cc(OC)c(OC)c(OC)c2)OC(c2ccc(OC)c(OC)c2)C1 (configuration not stated)

Reply:
> 100 µM
3.74 µM
> 100 µM
> 100 µM
> 100 µM
> 100 µM
> 100 µM

###

system: PC-3 prostate; assay: NCI tumour cell line growth inhibition, 48 h; in the data active = GI50 below about 0.43 µM; inactive = the rest
Returns: one label drawn from Y for active, N for inactive

NC(=S)N/N=C/c1ncccc1N :: N
O=C(COc1ccc(/C=C2\Oc3ccccc3C2=O)cc1)Nc1nc2c(s1)CCCC2 :: N
C[CH2][Sn]([CH2]C)([O]C(=O)C(OC(C)=O)c1ccccc1)[O]C(=O)C(OC(C)=O)c1ccccc1 (stereo not drawn) :: N
C[C@@H]1CC[C@H]2C(C(O)CCCCC(O)C3=C(C(F)(F)F)O[C@@H]4O[C@@]5(C)CC[C@H]6[C@H](C)CC[C@@H]3[C@@]46OO5)=C(C(F)(F)F)O[C@@H]3O[C@@]4(C)CC[C@@H]1[C@]32OO4 (stereo partly drawn) :: N
Nc1[nH]nc2nc(-c3cccs3)cc(C(F)(F)F)c12 :: N
C/C=C(\C)C(=O)O[C@H]1C=CC(=O)O[C@@H]1CC[C@H](O)[C@H](C)O :: N
CCN(CC)Cc1ccc(Nc2nccc(-c3cnn4ncccc34)n2)cc1 :: Y

Now take the following molecule into account.
Ask: What classification did Nc1nc(Nc2ccc(C3CCC(N4CCOCC4)CC3)cc2)nn1-c1ccccn1 (stereo not drawn) end up with in this test?
Reply: N

###

system: HS 578T breast; test: NCI tumour cell line growth inhibition, 48 h
reportedEndpoint: TGI

Examples from the recorded data:
CCOC(=O)c1cc2c3c(c(C(C)=O)c(O)c2[nH]1)N(CC(C)CC)CC3 (configuration not stated) :: 51.4 µM
CC(=O)Nc1ccc(OC2=CCN(C)CC2)cc1 :: > 100 µM
O=C(Nc1ccc(Cl)cc1)Nc1ccc(Nc2nncc3ccccc23)cc1 :: 27.7 µM

Quick batch: TGI for everything below.
1. CCN(CC)c1ccc2cc(C(=O)Nc3cccc4ccccc34)c(=N)oc2c1
2. CN1CCN(CCCBr)CC1
3. CCc1ccc(NC(=O)COC(=O)c2cc([N+](=O)[O-])ccc2Sc2nnnn2C)cc1

Reply:
1. > 100 µM
2. > 100 µM
3. 9.36 µM

###

Provide the reported TGI of each item.
tested on: MALME-3M melanoma; assay: NCI tumour cell line growth inhibition, 48 h

Some compounds with recorded TGI:
N#Cc1c(-c2ccc(Cl)cc2)c2c(n(C3OC(CO)C(O)C(O)C3O)c1=S)CCC2 (stereo not drawn) :: 51.8 µM
Cc1ccc2c(c1C)C(=O)/C(=C/c1ccccc1C(=O)O)C2 :: > 100 µM
CCOC(=O)NC(=O)c1cn(CCCCCCOC(=O)NCCCCCCNC(=O)OCCCCCCn2cc(C(=O)NC(=O)OCC)c(=O)[nH]c2=O)c(=O)[nH]c1=O :: > 100 µM
COC(=O)CCC(NC(=S)N/N=C/c1ccco1)C(=O)OC (stereo not drawn) :: > 100 µM
CCOc1ccccc1N=Nc1c(C)[nH]n(-c2nc(-c3ccccc3)cs2)c1=O :: > 100 µM

Fill in TGI for each of the 8 compounds listed.
1. CC[C@H](CO)Nc1nc(NCc2ccccc2)n2ncc(C(C)C)c2n1
2. O=C(c1ccccc1)c1cccc(C(=O)c2ccccc2)c1
3. COC1OC2COC1(OC)C1OC(C)(C)OC21 (stereo not drawn)
4. COc1ccc(/C=C2\CCCC3=C2NC(N)=NC3c2ccc(OC)c(OC)c2)cc1OC (stereo not drawn)
5. Cc1c2c(n(CCc3ccc(Cl)cc3)c1C)NC(c1ccccc1)C(C#N)S2(=O)=O (stereo not drawn)
6. CC1=C(CO)C(=O)O[C@@H]([C@@H](C)[C@H]2CC[C@H]3[C@@H]4C[C@@H](O)[C@@]5(O)CC=CC(=O)[C@]5(C)[C@H]4CC[C@]23C)C1
7. COC(=O)C1=CC2C(=O)OC1CC2C#N (stereo not drawn)
8. O=C(NN1C(=O)CSC12CCCC2)c1[nH]c2ccc(Br)cc2c1-c1ccccc1

Reply:
6.99 µM
> 100 µM
> 100 µM
> 70.2 µM
> 80.2 µM
44.7 µM
> 100 µM
> 100 µM

Give measured TGI for every item shown.
1. CCOC(=O)c1c(N2CCCC2)ncn(Cc2ccccc2)c1=S
2. COc1ccc(C(=O)/C=C/c2c(Cl)c3c(c(OC)c2Cl)OCC(=O)N3)cc1

Reply:
1: > 100 µM; 2: 4.99 µM

###

test system: RPMI-8226 leukemia; test: NCI tumour cell line growth inhibition, 48 h
reportedEndpoint: TGI

See these solved cases before continuing.
CC1(C)[C@@H](OC(N)=O)[C@H]2O[C@H]2[C@]2(CO)[C@H]3CC[C@]4(C)[C@@H](c5ccc(=O)oc5)[C@@H](Cl)C[C@]4(O)C3=CC[C@@H]12 :: 0.126 µM
COc1cc([C@H]2OC[C@H]3[C@@H]2CO[C@@H]3c2cc(OC)c3c(c2)OCO3)cc(OC)c1OC :: > 100 µM
CSC1=N/C(=C\c2ccco2)C(=O)N1CN1CCOCC1 :: > 80.4 µM
CCOC(=O)c1cc2c(C(=O)c3ccc([N+](=O)[O-])cc3)c(C(C)=O)ccc2[nH]1 :: > 100 µM
O=C(NC[C@H](O)CO)c1ccncc1Nc1ccc(I)cc1F :: > 100 µM
CN1CC[C@@H](c2c(O)cc(O)c3c(=O)cc(-c4ccccc4Cl)oc23)[C@@H]1CO :: 2.73 µM
Nc1[nH]nc2nc(-c3cccs3)cc(C(F)(F)F)c12 :: > 25 µM
O=C(O)c1nc(-c2ccccc2)[nH]c1C(=O)O :: 4.14 µM

Value sought for every listed molecule: TGI.
1. CC(=O)Nc1ccc(OC2=CCN(C)CC2)cc1
2. COC(=O)C(Cc1ccccc1)NP(=O)(O)OCC1OC(n2cc(F)c(=O)[nH]c2=O)CC1O (centres undefined)
3. COC(=O)c1c(O)ccc2c1c1c(n2Cc2cccc(C)c2)C(=O)c2ccccc2C1=O
4. Cc1c(NC(=O)CSC(=S)N2CCN(Cc3ccccc3)CC2)c(=O)n(-c2ccccc2)n1C
5. COc1ccc2nc3cc([N+](=O)[O-])ccc3c(Nc3ccc(S(=O)(=O)NC(C)=O)cc3)c2c1
6. C/C=C(/C)C(=O)O[C@H](C[C@@H](C)[C@H]1CC(c2ccoc2)OC1=O)[C@@]1(C)C(=O)CCC2O[C@]21C (some centres undefined)

Reply:
> 100 µM
> 100 µM
16.9 µM
> 100 µM
> 100 µM
> 100 µM

Please give TGI, item by item, for the list that follows.
1. CCOC(=O)c1c(N2CCCC2)ncn(Cc2ccccc2)c1=S
2. CCOC(=O)NC(=O)c1cn(CCCCCCOC(=O)NCCCCCCNC(=O)OCCCCCCn2cc(C(=O)NC(=O)OCC)c(=O)[nH]c2=O)c(=O)[nH]c1=O
3. [N-]=[N+]=NC(CI)c1cn([C@H]2C[C@H](O)[C@@H](CO)O2)c(=O)[nH]c1=O (some centres undefined)
4. CC[C@H](CO)Nc1nc(NCc2ccccc2)n2ncc(C(C)C)c2n1
5. COc1cc(C(=O)NC2CCN(C)CC2)c(F)cc1Nc1ncc2c(n1)N(C1CCCC1)CC(F)(F)C(=O)N2C

Reply:
["> 100 µM", "> 100 µM", "> 100 µM", "6.93 µM", "3.26 µM"]
